# study_conditions: in DMSO, 363.15 K
test_readout: solubility (mole fraction)
One number for each entry.

The compound NC(N)=C([N+](=O)[O-])[N+](=O)[O-] showed solubility (mole fraction) equal to 0.254

###

# study_conditions: in NMP, 293.15 K
test_readout: solubility (mole fraction)
Answers are plain numbers.

// NC(N)=C([N+](=O)[O-])[N+](=O)[O-] : solubility (mole fraction) value = 0.168

###

# study_conditions: in DMSO, 353.15 K
test_readout: solubility (mole fraction)
Give bare numbers.

So, NC(N)=C([N+](=O)[O-])[N+](=O)[O-] ? Its solubility (mole fraction) was 0.242

###

# study_conditions: in DMSO, 303.15 K
test_readout: solubility (mole fraction)
Answers are plain numbers.

Value of measured solubility (mole fraction) for the entry NC(N)=C([N+](=O)[O-])[N+](=O)[O-] : 0.191

###

# study_conditions: in DMSO, 313.15 K
test_readout: solubility (mole fraction)
Numbers only.

solubility (mole fraction) measured on NC(N)=C([N+](=O)[O-])[N+](=O)[O-] = 0.199

###

# study_conditions: in DMF, 363.15 K
test_readout: solubility (mole fraction)
One number for each entry.

The molecule listed as NC(N)=C([N+](=O)[O-])[N+](=O)[O-] has a reported solubility (mole fraction) of 0.162

###

# study_conditions: in NMP, 323.15 K
test_readout: solubility (mole fraction)
Numbers only.

Noted for NC(N)=C([N+](=O)[O-])[N+](=O)[O-] : its solubility (mole fraction) reads 0.194

###

# study_conditions: in DMF, 333.15 K
test_readout: solubility (mole fraction)
Answers are plain numbers.

The reported value for NC(N)=C([N+](=O)[O-])[N+](=O)[O-] in terms of solubility (mole fraction) is 0.129

###

# study_conditions: in NMP, 363.15 K
test_readout: solubility (mole fraction)
One number for each entry.

Please fill in: solubility (mole fraction) reported for NC(N)=C([N+](=O)[O-])[N+](=O)[O-] = 0.24

###

# study_conditions: in DMF, 313.15 K
test_readout: solubility (mole fraction)
Give bare numbers.

solubility (mole fraction) reported for this compound NC(N)=C([N+](=O)[O-])[N+](=O)[O-] : 0.11

###

# study_conditions: in DMSO, 343.15 K
test_readout: solubility (mole fraction)
Give bare numbers.

// solubility (mole fraction) value for NC(N)=C([N+](=O)[O-])[N+](=O)[O-] : 0.229

###

# study_conditions: in DMF, 303.15 K
test_readout: solubility (mole fraction)
Numbers only.

The compound listed as NC(N)=C([N+](=O)[O-])[N+](=O)[O-] has a reported solubility (mole fraction) of 0.102

###

# study_conditions: in DMF, 293.15 K
test_readout: solubility (mole fraction)

Per the record, NC(N)=C([N+](=O)[O-])[N+](=O)[O-] has solubility (mole fraction) of 0.0918

###

# study_conditions: in NMP, 313.15 K
test_readout: solubility (mole fraction)
Numbers only.

Recorded solubility (mole fraction) (compound NC(N)=C([N+](=O)[O-])[N+](=O)[O-] ): 0.184

###

# study_conditions: in DMSO, 293.15 K
test_readout: solubility (mole fraction)
Answers are plain numbers.

Sample NC(N)=C([N+](=O)[O-])[N+](=O)[O-] ; solubility (mole fraction) observed: 0.183
